Hello, the source for this data is ChEMBL document CHEMBL1201862, in case you need it.

system: MOLT-4; assay: NCI tumour cell line growth inhibition, 48 h
Activity calls are given as the source filed them. Cut-off read from the data, not from the text of the source: active = GI50 up to about 1.1 µM and inactive = higher.
Permitted responses: 1 (active), -1 (inactive)

Before answering, review these 6 worked examples.
Compound: Clc1c(Cl)c(Cl)c2nn(C3CCCO3)nc2c1Cl (stereo unspecified)
Group: -1

Compound: COc1ccc(/C=N/n2c(Cc3ccccc3)n[nH]c2=O)c(OC)c1
Group: -1

Compound: NNC(=O)N/N=C1/C(=O)N(c2ccc(Cl)c(Cl)c2)C(=O)C(=O)C1c1nc2ccccc2o1 (stereo unspecified)
Group: -1

Compound: O=c1[nH]nc(-c2ccccc2)n1/N=C/c1cccnc1
Group: -1

Compound: Nc1nc(Cl)c(CO)c(NCC2(CO)CCC2)n1
Group: -1

Compound: CCNc1cc2oc(=O)cc(C(F)(F)F)c2cc1C
Group: -1

Problem: Per the records of this test, what outcome belongs to Cc1cccc2c(N)c3cccc(C(=O)NCC[N+](C)(C)Cc4ccc([N+](=O)[O-])s4)c3nc12 ?
Solution: 1

Problem: Quick one: Cc1[nH]c(=O)[nH]c(=O)c1/C=C/C(=O)NC(CO)C[S+]([O-])Cc1ccccc1 (stereo unspecified)
Solution: -1

Problem: Quick one: CC(C)CC(N)C(=O)Nc1ccc2ccccc2c1 (stereo unspecified)
Solution: -1

Problem: Quick one: CC(C)NC1(C(N)=O)CCN(Cc2ccccc2)CC1
Solution: -1

Problem: Quick one: COc1cc(Br)cc2c1O[C@H]1C(=O)CC3CC21CCN3C (stereo partly specified)
Solution: -1

Problem: Quick one: CC1=CCC[C@H]2[C@](C)(CC3=CC(=O)C(SCC(C)C)=CC3=O)[C@@H](C)CC[C@]12C
Solution: -1

Problem: Quick one: CCOC(=O)C(NCc1ccccc1)(NC(=O)c1ccccc1)C(F)(F)F (stereo unspecified)
Solution: -1

Problem: Quick one: Oc1ccc(Cl)cc1-c1cc(-c2ccccc2)nc(S)n1
Solution: -1

Problem: Quick one: NC1(C(=O)O)CCC(C(=O)O)CC1 (stereo unspecified)
Solution: -1

Problem: Quick one: CC#N.O[C@@H]1CCCC[C@H]1O.O[C@@H]1CCCC[C@H]1O.[TeH2]
Solution: -1
